log10 of IC50 reference
- experimental target: Bifunctional epoxide hydrolase 2 (Homo sapiens)
- Sequence (P34913 whole entry): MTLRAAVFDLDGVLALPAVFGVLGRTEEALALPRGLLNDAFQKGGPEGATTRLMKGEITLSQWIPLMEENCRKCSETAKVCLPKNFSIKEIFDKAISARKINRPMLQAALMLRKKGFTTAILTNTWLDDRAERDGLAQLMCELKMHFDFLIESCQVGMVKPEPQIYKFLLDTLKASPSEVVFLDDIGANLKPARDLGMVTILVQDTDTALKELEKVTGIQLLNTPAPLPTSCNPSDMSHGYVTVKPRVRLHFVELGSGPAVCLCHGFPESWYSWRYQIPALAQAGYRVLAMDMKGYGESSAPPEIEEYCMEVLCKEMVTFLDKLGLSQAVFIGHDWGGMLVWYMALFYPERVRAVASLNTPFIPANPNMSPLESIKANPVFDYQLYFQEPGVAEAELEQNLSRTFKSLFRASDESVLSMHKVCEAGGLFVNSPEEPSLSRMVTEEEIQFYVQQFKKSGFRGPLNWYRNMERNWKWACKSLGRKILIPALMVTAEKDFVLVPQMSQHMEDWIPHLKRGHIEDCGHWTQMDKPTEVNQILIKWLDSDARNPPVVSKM
- experiment: Inhibition of recombinant human soluble epoxide hydrolase using PHOME as substrate assessed as 6-methoxynaphthaldehyde product formation preincubated with compound for 10 mins followed by substrate addition and measured by fluorescence based analysis
Transform log10 | Measure IC50 | Unit pM

## Task Fill in the blank: the reported log10 of IC50 of C[C@]12C[C@@H]3C[C@](C)(C1)C[C@@](NC(=O)Nc1ccc(C(=O)NC4CCC(C(=O)N(CCO)CCO)CC4)cc1F)(C3)C2 (stereo partly specified) is ____.
## Result 3.47

## Task Fill in the blank: the reported log10 of IC50 of C[C@]12C[C@@H]3C[C@](C)(C1)C[C@@](NC(=O)Nc1ccc(C(=O)N4CCCC(C(=O)N5CCN(CCO)CC5)C4)cc1F)(C3)C2 (stereo partly specified) is ____.
## Result 2.92

## Task Fill in the blank: the reported log10 of IC50 of CC(=O)N1CCCN(C(=O)C2CCCN(C(=O)c3ccc(NC(=O)N[C@@]45C[C@@H]6C[C@@](C)(C[C@@](C)(C6)C4)C5)c(F)c3)C2)CC1 (stereo partly specified) is ____.
## Result 2.78

## Task Fill in the blank: the reported log10 of IC50 of CCN(CC)C(=O)C1CCCN(C(=O)c2ccc(NC(=O)N[C@]34C[C@@H]5C[C@@](C)(C[C@@](C)(C5)C3)C4)c(F)c2)C1 (stereo partly specified) is ____.
## Result 2.54

## Task Fill in the blank: the reported log10 of IC50 of C[C@]12C[C@@H]3C[C@](C)(C1)C[C@@](NC(=O)Nc1ccc(C(=O)NC4CCC(C(N)=O)CC4)cc1F)(C3)C2 (stereo partly specified) is ____.
## Result 2.92

## Task Fill in the blank: the reported log10 of IC50 of C[C@]12C[C@@H]3C[C@](C)(C1)C[C@@](NC(=O)Nc1ccc(CN4CCCC(C(N)=O)C4)cc1F)(C3)C2 (stereo partly specified) is ____.
## Result 2.15

This collection of values is drawn from ChEMBL document CHEMBL5380778.
